- experiment: Pharmacokinetic profiles in dogs after intravenous and oral administration
- Format: in vivo
- condition summary: plasma; Dog, iv dosing 1 mg/kg
endpoint label: half-life (min)
Give your result in min as a bare value.

Can you share its half-life? I mean this compound: COc1ncc(-c2ccc3ncc(C#N)n3n2)cc1NS(=O)(=O)c1ccc(F)cc1F
34.2

Next up: COc1ncc(-c2ccc3ncc(C#CCO)n3n2)cc1NS(=O)(=O)c1ccc(F)cc1F
43.8

Next up: COc1ncc(-c2ccc3ncc(C#CCO)n3c2)cc1NS(=O)(=O)c1ccc(F)cc1F
44.4

* * *

- experiment: Pharmacokinetic profiles in dogs after intravenous and oral administration
- Format: in vivo
- condition summary: plasma; Dog, iv dosing 1 mg/kg; read-out: Vss
For each entry below, report its Vd value.
Give your result in L/kg as a bare value.

Can you share its Vd? I mean this molecule: COc1ncc(-c2ccc3ncc(C#CCO)n3c2)cc1NS(=O)(=O)c1ccc(F)cc1F
0.37

Next up: COc1ncc(-c2ccc3ncc(C#CCO)n3n2)cc1NS(=O)(=O)c1ccc(F)cc1F
0.31

Next up: COc1ncc(-c2ccc3ncc(C#N)n3n2)cc1NS(=O)(=O)c1ccc(F)cc1F
0.37

* * *

- experiment: Pharmacokinetic profiles in rats after intravenous and oral administration
- Assay type: in vivo
- condition summary: rat, plasma, iv dosing 1 mg/kg
- Method: The compounds disclosed herein are assessed in pharmacokinetic studies in mice, rats, dogs or monkeys. The compounds are administered as a water solution, 2% HPMC+1% TWEEN® 80 in water solution, 5% DMSO+5% solutol in saline, 4% MC suspension or capsule. For the intravenous administration, the animals are generally given at 1 or 2 mg/kg dose. […] The plasma solutions are collected, stored at −20° C. or −70° C. until analyzed by LC/MS/MS as described above.
endpoint label: half-life (h)
Give your result in h as a bare value.

Can you share its half-life? I mean this molecule: COc1ncc(-c2ccc3ncc(C#CCO)n3n2)cc1NS(=O)(=O)c1ccc(F)cc1F [Ex. 9]
4.1

Next up: COc1ncc(-c2ccc3nnc(C#CC(C)O)n3c2)cc1NS(=O)(=O)c1ccc(F)cc1F (stereo not shown) [Ex. 23]
0.15

Next up: COc1ncc(-c2ccc3ncc(C#CC(C)(C)O)n3c2)cc1NS(=O)(=O)c1ccc(F)cc1F [Ex. 17]
5.3

Next up: CC#Cc1cnc2ccc(-c3cnc(OC)c(NS(=O)(=O)c4ccc(F)cc4)c3)nn12 [Ex. 5]
8.74

* * *

- experiment: Pharmacokinetic profiles in rats after intravenous and oral administration
- Type: in vivo
- condition summary: iv dose 1 mg/kg, oral dose generally 5 or 10 mg/kg
For each entry below, report its F value.
Answer with the figure and its unit, nothing else.

Can you share its F? I mean this compound: CC#Cc1cnc2ccc(-c3cnc(OC)c(NS(=O)(=O)c4ccc(F)cc4)c3)nn12 [Ex. 5]
95.6%

Next up: COc1ncc(-c2ccc3ncc(C#CCO)n3n2)cc1NS(=O)(=O)c1ccc(F)cc1F [Ex. 9]
104.2%

Next up: CC#Cc1cnc2ccc(-c3cnc(OC)c(NS(=O)(=O)c4ccc(F)cc4F)c3)nn12 [Ex. 13]
95.8%

Next up: COc1ncc(-c2ccc3ncc(C#CC(C)(C)O)n3c2)cc1NS(=O)(=O)c1ccc(F)cc1F [Ex. 17]
123.1%

Next up: COc1ncc(-c2ccc3nnc(C#CC(C)O)n3c2)cc1NS(=O)(=O)c1ccc(F)cc1F (stereo not shown) [Ex. 23]
5.9%

Next up: COc1ncc(-c2ccc3ncc(C#N)n3n2)cc1NS(=O)(=O)c1ccc(F)cc1 [Ex. 6]
123.7%

Next up: COc1ncc(-c2ccc3ncc(C#CC(C)O)n3c2)cc1NS(=O)(=O)c1ccc(F)cc1F (stereo not shown) [Ex. 16]
99.77%

Next up: COc1ncc(-c2ccc3ncc(C#CC(C)(C)O)n3n2)cc1NS(=O)(=O)c1ccc(F)cc1F [Ex. 11]
115.8%

Next up: C#Cc1cnc2ccc(-c3cnc(OC)c(NS(=O)(=O)c4ccc(F)cc4)c3)nn12 [Ex. 1]
96.0%

Next up: CC#Cc1cnc2ccc(-c3cnc(OC)c(NS(=O)(=O)c4ccc(F)cc4F)c3)cn12 [Ex. 18]
97.16%
